- System: NKX3.1 mRNA
- Test name: Expression of AR target genes (qRT-PCR) in 22Rv1: NKX3.1
- Type: cell-based
- Measurement setup: Homo sapiens; 22Rv1, 1 μM, 48h; relative to vehicle control (DMSO)
For each record, check the reported mrna remaining at 1 µM: if it is below 40% write Condition met, else write Condition not met.

| Smiles text | Qualitative label |
| --- | --- |
| C[C@H](O)Cn1ncc(-c2onc(-c3cccc(C(=O)N4CCCC4)c3Cl)c2-c2ccncn2)c1C(F)(F)F | Condition met |
| CCOC(=O)c1c(-c2cccc(OC)c2Cl)noc1-c1cnn(CCC(C)(C)O)c1C(F)(F)F | Condition met |
| COC(=O)c1c(-c2c(F)cccc2Cl)noc1-c1cnn([C@H]2C[C@@](C)(O)C2)c1C(F)(F)F | Condition met |

Determine if C[C@]1(O)C[C@@H](n2ncc(-c3onc(-c4c(F)cccc4Cl)c3-c3ccncn3)c2C(F)(F)F)C1 shows mrna remaining at 1 µM strictly lower than 40%.
Condition met

Determine if CC(C)(O)CCn1ncc(-c2onc(-c3c(F)cccc3Cl)c2-c2ncccn2)c1C(F)(F)F shows mrna remaining at 1 µM strictly lower than 40%.
Condition met

Determine if C[C@]1(O)C[C@@H](n2ncc(-c3onc(-c4c(F)cccc4Cl)c3-c3ncccn3)c2C(F)(F)F)C1 shows mrna remaining at 1 µM strictly lower than 40%.
Condition met

Determine if CC(C)(O)CCn1ncc(-c2onc(-c3cccc(OCCN4CCOCC4)c3Cl)c2-c2ncccn2)c1C(F)(F)F shows mrna remaining at 1 µM strictly lower than 40%.
Condition met

Determine if C[C@]1(O)C[C@@H](n2ncc(-c3onc(-c4ccccc4Cl)c3-c3ncccn3)c2C(F)(F)F)C1 shows mrna remaining at 1 µM strictly lower than 40%.
Condition not met

Determine if COc1cccc(-c2noc(-c3cnn([C@H]4C[C@@](C)(O)C4)c3C(F)(F)F)c2COC2CC2)c1Cl shows mrna remaining at 1 µM strictly lower than 40%.
Condition not met

====

- System: KCL22 (CML)
- Test name: Oncotest inhibition of viability, KCL22
- Type: cell-based
- Measurement setup: Homo sapiens, KCL-22; CML cell line KCL22; read-out: IC50 range
pIC50: −log10 of the molar value.
Parameter: pIC50

Entry COC(=O)c1c(-c2c(F)cccc2Cl)noc1-c1cnn(-c2cccc(Cl)c2)c1C(F)(F)F [Example 1] ; pIC50 = 7.00 to 8.00

====

- System: JURKAT (ALL)
- Test name: Oncotest inhibition of viability, JURKAT
- Type: cell-based
- Measurement setup: Homo sapiens; ALL cell line JURKAT; read-out: IC50 range
pIC50: −log10 of the molar value.
Parameter: pIC50

The reported pIC50 value, JURKAT (ALL), for COC(=O)c1c(-c2c(F)cccc2Cl)noc1-c1cnn(-c2cccc(Cl)c2)c1C(F)(F)F reads > 8.00

====

- Test system: NOMO1 (AML)
- Test name: Oncotest inhibition of viability, NOMO1
- Assay type: cell-based
- Measurement setup: Homo sapiens, NOMO-1; AML cell line NOMO1; read-out: IC50 range
Parameter: IC50

The reported IC50 value, NOMO1 (AML), for COC(=O)c1c(-c2c(F)cccc2Cl)noc1-c1cnn(-c2cccc(Cl)c2)c1C(F)(F)F [Example 1] reads 100 to 1000 nM

====

- Test system: full length AR (AR-FL) mRNA
- Test name: Androgen receptor RNA level expression (qRT-PCR) in 22Rv1: AR-FL
- Type: cell-based
- Measurement setup: Homo sapiens; 22Rv1, 1 μM, 48 h; normalized to untreated control (vehicle/DMSO)
Parameter: mrna remaining at 1 µM (%)
API: value field is a number in %; no unit string.

Look over these answered cases.
| Smiles text | mrna remaining at 1 µM / % |
| --- | --- |
| Fc1cccc(Cl)c1-c1noc(-c2cnn(-c3cccc(Cl)c3)c2C(F)(F)F)c1-c1nccs1 | 43.6 |
| COc1cccc(-c2noc(-c3cnn([C@H]4C[C@@](C)(O)C4)c3C(F)(F)F)c2COC2CC2)c1Cl | 49.9 |
| COC(=O)c1c(-c2c(F)cccc2Cl)noc1-c1cnn(-c2cccc(Cl)c2)c1C(F)(F)F | 44.2 |
| C[C@]1(O)C[C@@H](n2ncc(-c3onc(-c4c(F)cccc4Cl)c3-c3ncccn3)c2C(F)(F)F)C1 | 45.4 |
| C[C@]1(O)C[C@@H](n2ncc(-c3onc(-c4ccccc4Cl)c3-c3ncccn3)c2C(F)(F)F)C1 | 54.9 |

Entry CC(C)(O)CCn1ncc(-c2onc(-c3c(F)cccc3Cl)c2-c2ncccn2)c1C(F)(F)F ; mrna remaining at 1 µM = 44.9

Data origin: patent US20240368145A1
